# credit: ChEMBL document CHEMBL2073947

- measured.target: MRP5 (ATP-binding cassette sub-family C member 5) (Homo sapiens, UniProt O15440)
- Sequence (O15440 whole entry): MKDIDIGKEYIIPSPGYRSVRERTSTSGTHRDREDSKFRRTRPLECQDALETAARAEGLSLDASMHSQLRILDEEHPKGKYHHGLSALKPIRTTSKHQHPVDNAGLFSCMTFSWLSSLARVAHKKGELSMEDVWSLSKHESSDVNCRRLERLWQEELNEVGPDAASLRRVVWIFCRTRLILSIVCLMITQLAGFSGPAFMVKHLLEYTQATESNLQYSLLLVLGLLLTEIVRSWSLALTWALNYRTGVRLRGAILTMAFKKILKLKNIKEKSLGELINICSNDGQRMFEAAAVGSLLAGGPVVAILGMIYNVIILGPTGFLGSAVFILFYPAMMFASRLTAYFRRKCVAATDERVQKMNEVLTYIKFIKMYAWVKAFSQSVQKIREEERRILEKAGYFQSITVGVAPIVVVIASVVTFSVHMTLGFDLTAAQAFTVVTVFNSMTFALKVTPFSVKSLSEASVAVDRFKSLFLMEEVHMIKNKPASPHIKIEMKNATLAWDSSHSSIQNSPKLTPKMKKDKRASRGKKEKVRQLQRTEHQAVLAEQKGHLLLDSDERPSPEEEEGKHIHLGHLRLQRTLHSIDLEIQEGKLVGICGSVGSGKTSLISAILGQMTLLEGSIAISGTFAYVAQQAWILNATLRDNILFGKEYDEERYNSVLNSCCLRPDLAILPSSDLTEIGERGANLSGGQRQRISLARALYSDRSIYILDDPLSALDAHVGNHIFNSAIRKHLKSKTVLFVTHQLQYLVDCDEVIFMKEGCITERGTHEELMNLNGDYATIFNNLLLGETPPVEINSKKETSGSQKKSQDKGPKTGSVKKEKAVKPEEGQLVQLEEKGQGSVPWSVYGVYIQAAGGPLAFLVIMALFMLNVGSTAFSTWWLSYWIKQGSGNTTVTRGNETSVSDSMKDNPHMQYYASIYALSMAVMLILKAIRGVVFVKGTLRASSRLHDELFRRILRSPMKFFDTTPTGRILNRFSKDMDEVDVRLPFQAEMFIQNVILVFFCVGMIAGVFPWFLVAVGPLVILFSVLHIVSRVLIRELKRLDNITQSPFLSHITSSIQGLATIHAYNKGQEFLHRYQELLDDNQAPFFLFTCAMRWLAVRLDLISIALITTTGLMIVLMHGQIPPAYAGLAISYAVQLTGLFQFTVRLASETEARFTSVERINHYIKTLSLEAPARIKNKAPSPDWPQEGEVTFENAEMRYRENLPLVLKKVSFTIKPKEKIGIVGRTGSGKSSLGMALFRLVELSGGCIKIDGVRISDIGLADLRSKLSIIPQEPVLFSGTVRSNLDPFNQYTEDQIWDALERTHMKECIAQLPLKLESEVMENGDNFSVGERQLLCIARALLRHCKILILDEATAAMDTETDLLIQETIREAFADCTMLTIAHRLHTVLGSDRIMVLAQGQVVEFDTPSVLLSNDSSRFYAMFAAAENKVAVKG
- procedure.summary: TP_TRANSPORTER: inhibition of alaninyl-d4TMP by Prostaglandin E1 at a concentration of 20uM in membrane vesicle from MRP5-expressing HEK293 cell
- Assay type: functional, cell membranes
- Set-up: scale not given: the % may be the effect or the level left
- measurement.conditions: membrane vesicles from MRP5-expressing HEK293 cells, probe alaninyl-d4TMP, read-out: Activity
quantity: activity at 20 µM (%)
Note: unit % is implicit; provide only the numeric part.

response.value for CCCCC[C@H](O)/C=C/[C@H]1[C@H](O)CC(=O)[C@@H]1CCCCCCC(=O)O [ALPROSTADIL] (field: activity at 20 µM) = 69

* * *

- measured.target: UniProt:O15439
- Sequence (O15439 whole entry): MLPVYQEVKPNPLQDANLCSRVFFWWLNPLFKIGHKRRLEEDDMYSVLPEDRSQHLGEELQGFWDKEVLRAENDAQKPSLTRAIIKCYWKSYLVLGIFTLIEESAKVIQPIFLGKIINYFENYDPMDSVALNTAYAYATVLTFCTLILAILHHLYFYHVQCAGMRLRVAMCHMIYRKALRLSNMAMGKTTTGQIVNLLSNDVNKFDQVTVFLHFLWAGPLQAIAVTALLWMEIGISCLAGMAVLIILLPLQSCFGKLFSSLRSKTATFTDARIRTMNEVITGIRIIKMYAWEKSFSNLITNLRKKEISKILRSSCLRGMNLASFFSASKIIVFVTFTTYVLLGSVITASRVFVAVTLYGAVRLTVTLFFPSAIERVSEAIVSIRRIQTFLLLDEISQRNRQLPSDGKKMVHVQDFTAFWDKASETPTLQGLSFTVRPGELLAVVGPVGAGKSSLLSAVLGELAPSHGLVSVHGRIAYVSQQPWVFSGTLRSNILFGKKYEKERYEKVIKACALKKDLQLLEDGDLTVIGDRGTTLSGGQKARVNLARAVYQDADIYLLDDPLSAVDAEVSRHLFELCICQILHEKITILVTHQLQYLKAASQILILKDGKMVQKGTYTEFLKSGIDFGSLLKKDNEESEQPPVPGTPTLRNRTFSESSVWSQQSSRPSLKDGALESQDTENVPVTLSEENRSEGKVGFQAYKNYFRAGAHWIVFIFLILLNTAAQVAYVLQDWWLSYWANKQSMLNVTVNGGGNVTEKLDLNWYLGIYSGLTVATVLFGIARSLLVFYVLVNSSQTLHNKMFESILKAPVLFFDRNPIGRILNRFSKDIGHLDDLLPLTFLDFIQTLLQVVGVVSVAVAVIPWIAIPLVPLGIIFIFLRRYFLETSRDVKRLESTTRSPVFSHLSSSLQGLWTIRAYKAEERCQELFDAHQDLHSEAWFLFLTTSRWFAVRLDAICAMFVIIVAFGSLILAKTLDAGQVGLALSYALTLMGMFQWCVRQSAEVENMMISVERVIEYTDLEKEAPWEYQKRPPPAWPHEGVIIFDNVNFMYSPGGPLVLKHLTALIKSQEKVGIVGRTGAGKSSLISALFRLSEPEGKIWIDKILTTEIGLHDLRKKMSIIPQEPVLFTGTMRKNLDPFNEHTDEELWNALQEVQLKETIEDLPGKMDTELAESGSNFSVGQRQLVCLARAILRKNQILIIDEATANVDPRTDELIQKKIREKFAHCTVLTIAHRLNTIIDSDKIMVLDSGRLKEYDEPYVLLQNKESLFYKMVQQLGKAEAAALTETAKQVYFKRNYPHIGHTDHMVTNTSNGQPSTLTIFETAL
- procedure.summary: TP_TRANSPORTER: inhibition of alaninyl-d4TMP in the presence of Prostaglandin F1alpha at a concentration of 20uM in membrane vesicles from MRP4-expressing Sf9 cells
- Assay type: functional, cell membranes, Membrane vesicle
- Parameters: scale not given: the % may be the effect or the level left
- measurement.conditions: probe alaninyl-d4TMP, read-out: Activity
quantity: activity at 20 µM (%)
Give just the numeric value; % need not be written.

The compound listed as CCCCC[C@H](O)/C=C/[C@@H]1[C@@H](CCCCCCC(=O)O)[C@@H](O)C[C@H]1O [PROSTAGLANDIN F1ALPHA] shows activity at 20 µM equal to 29
